procedure.summary: Percutaneous administration by strapping technique to conscious rats (rayon cloth on abdominal region), plasma concentration by HPLC
Assay type: in vivo, rat (Jcl Wistar strain male)
applied.conditions: male, Jcl Wistar, rat, plasma, topical or ocular; 8 mg/kg percutaneous; aqueous base pH 4, 5.6 mg/mL; conscious rats; read-out: AUC 0-360 min (converted)
measured.property: AUC(0-t) (ng·h/mL)
Respond with the bare value in ng·h/mL.

GET /values?readout=AUC(0-t)&item= c1cc(-c2nc3c4c(ncc3[nH]2)CCOC4)no1 [Compound (I-1)] 1000

###

procedure.summary: Percutaneous administration to anesthetized rats (glass cell on abdominal skin), plasma concentration by HPLC and residual drug recovery
Type: in vivo, rat (Jcl SD strain)
applied.conditions: Jcl SD, rat, plasma, topical or ocular, 8 mg/kg, 8 mg/kg percutaneous; phosphate salt 5.6 mg/mL in 2.5% 1-menthol/20% ethanol/77.5% distilled water; N=3
measured.property: MRT

GET /values?readout=MRT&item= c1cc(-c2nc3c4c(ncc3[nH]2)CCOC4)no1 3.6 h

###

procedure.summary: Percutaneous administration by strapping technique to conscious rats (rayon cloth on abdominal region), plasma concentration by HPLC
Format: in vivo, rat (Jcl Wistar strain male)
applied.conditions: male, Jcl Wistar, rat, plasma, topical or ocular; 4 mg/kg percutaneous; aqueous base pH 4, 5.6 mg/mL; conscious rats
measured.property: Tmax
# answer = value followed by unit

GET /values?readout=Tmax&item= c1cc(-c2nc3c4c(ncc3[nH]2)CCOC4)no1 [Compound (I-1)] 1.55 h

###

procedure.summary: Percutaneous administration by strapping technique to conscious rats (rayon cloth on abdominal region), plasma concentration by HPLC
Format: in vivo, rat (Jcl Wistar strain male)
applied.conditions: male, Jcl Wistar, rat, plasma, topical or ocular; 8 mg/kg percutaneous (0.5 mL, 10 cm^2); aqueous base 3% 1-menthol/30% ethanol/67% pH 4 phosphate buffer, 5.6 mg/mL; conscious rats
measured.property: Cmax (ng/mL)
Respond with the bare value in ng/mL.

GET /values?readout=Cmax&item= c1cc(-c2nc3c4c(ncc3[nH]2)CCOC4)no1 [Compound (I-1)] 450

###

procedure.summary: Percutaneous administration by strapping technique to conscious rats (rayon cloth on abdominal region), plasma concentration by HPLC
Type: in vivo, rat (Jcl Wistar strain male)
applied.conditions: male, Jcl Wistar, rat, plasma, topical or ocular; 8 mg/kg percutaneous; aqueous base pH 4, 5.6 mg/mL; conscious rats
measured.property: Tmax (min)
Respond with the bare value in min.

GET /values?readout=Tmax&item= c1cc(-c2nc3c4c(ncc3[nH]2)CCOC4)no1 51

###

procedure.summary: Percutaneous administration to anesthetized rats (glass cell on abdominal skin), plasma concentration by HPLC and residual drug recovery
Assay type: in vivo, rat (Jcl SD strain)
applied.conditions: Jcl SD, rat, plasma, topical or ocular, 8 mg/kg; oily base 2.5% 1-menthol/20% ethanol/77.5% isopropyl myristate; phosphate salt 5.6 mg/mL; N=3
measured.property: MRT (h)
Respond with the bare value in h.

GET /values?readout=MRT&item= c1cc(-c2nc3c4c(ncc3[nH]2)CCOC4)no1 2.6

###

procedure.summary: Percutaneous administration to anesthetized rats (glass cell on abdominal skin), plasma concentration by HPLC and residual drug recovery
Type: in vivo, rat (Jcl SD strain)
applied.conditions: Jcl SD, rat, plasma, topical or ocular, 8 mg/kg, 8 mg/kg percutaneous; phosphate salt 5.6 mg/mL in 2.5% 1-menthol/20% ethanol/77.5% distilled water; blood to 8 hr; N=3
measured.property: AUC (ng·h/mL)
Respond with the bare value in ng·h/mL.

GET /values?readout=AUC&item= c1cc(-c2nc3c4c(ncc3[nH]2)CCOC4)no1 [Compound (I-1)] 720
